These measurements were taken from PubChem BioAssay AID2060502.

Test system: 885724-159-R-J1-PDC complex spheroid viability
Assay remarks: Anticancer human tumor 885724-159-R-J1-PDC patient-derived pancreatic adenocarcinoma cell line growth inhibition [GQUAD]
Protocol conditions: second compound 0.1 µM; first compound 0.0316 µM; stronger effect = lower value
Collected viability, T/C values appear next to each entry.
Give a bare numeral; the unit % is implied.

Cc1cccc(N(C)C(=O)C2C(O)CCN2c2nc(C)cc(C(F)(F)F)c2C#N)c1 (centres undefined) + Cc1cnc(CNC(=O)c2c(=O)c3ccc(N4CCCN(C)CC4)nc3n3c2sc2ccccc23)cn1 ... 107
CC(C)n1c(=O)n(C)c2cnc3cc(F)c(-c4ccc(OCCCN5CCCCC5)nc4)cc3c21 + Cc1[nH]c2ccc(F)cc2c1-c1nc2c3cccnc3c3ncccc3c2[nH]1 ... 100
O=C(NO)c1cnc(N2CCN(S(=O)(=O)c3ccc4ccccc4c3)CC2)nc1 + CN(C)c1ccc(Nc2c3ccc(NC(=O)CCN4CCCC4)cc3nc3cc(NC(=O)CCN4CCCC4)ccc23)cc1 ... 106

Next compound, viability, T/C to be filled in.
What measured viability, T/C goes with Nc1ccn(C2OC(CO)C(O)C2(F)F)c(=O)n1 (centres undefined) + CN(C)c1ccc(Nc2c3ccc(NC(=O)CCN4CCCC4)cc3nc3cc(NC(=O)CCN4CCCC4)ccc23)cc1 ?
102

----------
Tested on: 885724-159-R-J1-PDC complex spheroid viability
Assay remarks: Anticancer human tumor 885724-159-R-J1-PDC cell line growth inhibition [GQUAD];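 further: spheroids exposed to agents for seven days before readout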;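 on viability, T/C: percent of vehicle control viability where 100% = DMSO wells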
Protocol conditions: second compound 3.16 µM; first compound 3.16 µM; stronger effect = lower value
Measured property: viability, T/C (%)
Give a bare numeral; the unit % is implied.

O=C(c1cc(Cc2n[nH]c(=O)c3ccccc23)ccc1F)N1CCN(C(=O)C2CC2)CC1 + CN(C)c1ccc(Nc2c3ccc(NC(=O)CCN4CCCC4)cc3nc3cc(NC(=O)CCN4CCCC4)ccc23)cc1 ... 70.5

What measured viability, T/C goes with COc1ncnc(C2CC2)c1-c1ncc2cnn(Cc3ccc(-c4nc(C(F)(F)F)cn4C(C)C)cc3)c2n1 + Cc1[nH]c2ccc(F)cc2c1-c1nc2c3cccnc3c3ncccc3c2[nH]1 ?
11.8

What measured viability, T/C goes with COc1cc(C2c3cc4c(cc3C(OC3OC5COC(C)OC5C(O)C3O)C3COC(=O)C23)OCO4)cc(OC)c1O (stereo not given) + Cc1[nH]c2ccc(F)cc2c1-c1nc2c3cccnc3c3ncccc3c2[nH]1 ?
35.8

What measured viability, T/C goes with O=C(NO)c1cnc(N2CCN(S(=O)(=O)c3ccc4ccccc4c3)CC2)nc1 + Cc1cnc(CNC(=O)c2c(=O)c3ccc(N4CCCN(C)CC4)nc3n3c2sc2ccccc23)cn1 ?
0.23

----------
Collected viability, T/C values appear next to each entry.
Test system: 885724-159-R-J1-PDC complex spheroid viability
Assay remarks: Anticancer human tumor 885724-159-R-J1-PDC cell line growth inhibition [GQUAD];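 further: spheroids exposed to agents for seven days before readout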;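 on viability, T/C: percent of vehicle control viability where 100% = DMSO wells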
Protocol conditions: second compound 10 µM; first compound 10 µM; stronger effect = lower value
Give a bare numeral; the unit % is implied.

COc1ncnc(C2CC2)c1-c1ncc2cnn(Cc3ccc(-c4nc(C(F)(F)F)cn4C(C)C)cc3)c2n1 + CN(C)c1ccc(Nc2c3ccc(NC(=O)CCN4CCCC4)cc3nc3cc(NC(=O)CCN4CCCC4)ccc23)cc1 ... 47.8
C#Cc1c(F)ccc2cc(O)cc(-c3ncc4c(N5CC6CCC(C5)N6)nc(OCC56CCCN5CC(F)C6)nc4c3F)c12 (stereo not given) + CN(C)c1ccc(Nc2c3ccc(NC(=O)CCN4CCCC4)cc3nc3cc(NC(=O)CCN4CCCC4)ccc23)cc1 ... 2.3

What reported viability, T/C corresponds to O=C(NO)c1cnc(N2CCN(S(=O)(=O)c3ccc4ccccc4c3)CC2)nc1 + Cc1cnc(CNC(=O)c2c(=O)c3ccc(N4CCCN(C)CC4)nc3n3c2sc2ccccc23)cn1 on 885724-159-R-J1-PDC complex spheroid viability?
0.22

What reported viability, T/C corresponds to CC(C)n1c(=O)n(C)c2cnc3cc(F)c(-c4ccc(OCCCN5CCCCC5)nc4)cc3c21 + CN(C)c1ccc(Nc2c3ccc(NC(=O)CCN4CCCC4)cc3nc3cc(NC(=O)CCN4CCCC4)ccc23)cc1 on 885724-159-R-J1-PDC complex spheroid viability?
7.2

What reported viability, T/C corresponds to Cc1cccc(N(C)C(=O)C2C(O)CCN2c2nc(C)cc(C(F)(F)F)c2C#N)c1 (stereo not given) + CN(C)c1ccc(Nc2c3ccc(NC(=O)CCN4CCCC4)cc3nc3cc(NC(=O)CCN4CCCC4)ccc23)cc1 on 885724-159-R-J1-PDC complex spheroid viability?
56.5

What reported viability, T/C corresponds to CC1COCCN1c1cc(-c2ccnn2C)c2ccnc(-c3ccn[nH]3)c2n1 (stereo not given) + Cc1[nH]c2ccc(F)cc2c1-c1nc2c3cccnc3c3ncccc3c2[nH]1 on 885724-159-R-J1-PDC complex spheroid viability?
47.9

What reported viability, T/C corresponds to CC1COCCN1c1cc(-c2ccnn2C)c2ccnc(-c3ccn[nH]3)c2n1 (stereo not given) + CN(C)c1ccc(Nc2c3ccc(NC(=O)CCN4CCCC4)cc3nc3cc(NC(=O)CCN4CCCC4)ccc23)cc1 on 885724-159-R-J1-PDC complex spheroid viability?
36.2

What reported viability, T/C corresponds to CC(C)n1c(=O)n(C)c2cnc3cc(F)c(-c4ccc(OCCCN5CCCCC5)nc4)cc3c21 + Cc1[nH]c2ccc(F)cc2c1-c1nc2c3cccnc3c3ncccc3c2[nH]1 on 885724-159-R-J1-PDC complex spheroid viability?
63.2

What reported viability, T/C corresponds to CC1COCCN1c1cc(C2(S(C)(=N)=O)CC2)nc(-c2ccnc3[nH]ccc23)n1 (stereo not given) + Cc1cnc(CNC(=O)c2c(=O)c3ccc(N4CCCN(C)CC4)nc3n3c2sc2ccccc23)cn1 on 885724-159-R-J1-PDC complex spheroid viability?
59.5

What reported viability, T/C corresponds to Nc1ccn(C2OC(CO)C(O)C2(F)F)c(=O)n1 (stereo not given) + Cc1cnc(CNC(=O)c2c(=O)c3ccc(N4CCCN(C)CC4)nc3n3c2sc2ccccc23)cn1 on 885724-159-R-J1-PDC complex spheroid viability?
74.8

----------
Collected pIC50 values appear next to each entry.
Test system: 885724-159-R-J1-PDC complex spheroid viability
Assay remarks: Anticancer human tumor 885724-159-R-J1-PDC cell line growth inhibition [GQUAD];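 further: spheroids exposed to agents for seven days before readout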
Protocol conditions: curve of first compound; second compound 0.0316 µM
pIC50: −log10 of the molar value.

CCCS(=O)(=O)Nc1ccc(F)c(C(=O)c2c[nH]c3ncc(-c4ccc(Cl)cc4)cc23)c1F + Cc1cnc(CNC(=O)c2c(=O)c3ccc(N4CCCN(C)CC4)nc3n3c2sc2ccccc23)cn1 ... < 5.00

What measured pIC50 goes with CCCS(=O)(=O)Nc1ccc(F)c(C(=O)c2c[nH]c3ncc(-c4ccc(Cl)cc4)cc23)c1F + CN(C)c1ccc(Nc2c3ccc(NC(=O)CCN4CCCC4)cc3nc3cc(NC(=O)CCN4CCCC4)ccc23)cc1 ?
< 5.00

What measured pIC50 goes with C=CCn1c(=O)c2cnc(Nc3ccc(N4CCN(C)CC4)cc3)nc2n1-c1cccc(C(C)(C)O)n1 + CN(C)c1ccc(Nc2c3ccc(NC(=O)CCN4CCCC4)cc3nc3cc(NC(=O)CCN4CCCC4)ccc23)cc1 ?
< 5.00

----------
System: 885724-159-R-J1-PDC complex spheroid viability
Assay remarks: Anticancer human tumor 885724-159-R-J1-PDC cell line growth inhibition [GQUAD];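 further: spheroids exposed to agents for seven days before readout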;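 on viability, T/C: percent of vehicle control viability where 100% = DMSO wells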
Protocol conditions: second compound 3.16 µM; first compound 0.00999 µM; stronger effect = lower value
Collected viability, T/C values appear next to each entry.
Give a bare numeral; the unit % is implied.

Sample records with viability, T/C:
CC[C@@]1(O)C(=O)OCc2c1cc1n(c2=O)Cc2cc3c(CN(C)C)c(O)ccc3nc2-1 + CN(C)c1ccc(Nc2c3ccc(NC(=O)CCN4CCCC4)cc3nc3cc(NC(=O)CCN4CCCC4)ccc23)cc1 ... 74.8
Cn1ncnc1[C@H]1c2n[nH]c(=O)c3cc(F)cc(c23)N[C@@H]1c1ccc(F)cc1 + Cc1[nH]c2ccc(F)cc2c1-c1nc2c3cccnc3c3ncccc3c2[nH]1 ... 43.8
CC[C@@]1(O)C(=O)OCc2c1cc1n(c2=O)Cc2cc3c(CN(C)C)c(O)ccc3nc2-1 + Cc1cnc(CNC(=O)c2c(=O)c3ccc(N4CCCN(C)CC4)nc3n3c2sc2ccccc23)cn1 ... 75
Cn1ncnc1[C@H]1c2n[nH]c(=O)c3cc(F)cc(c23)N[C@@H]1c1ccc(F)cc1 + Cc1cnc(CNC(=O)c2c(=O)c3ccc(N4CCCN(C)CC4)nc3n3c2sc2ccccc23)cn1 ... 78.9
CCc1c2c(nc3ccc(O)cc13)-c1cc3c(c(=O)n1C2)COC(=O)[C@]3(O)CC + CN(C)c1ccc(Nc2c3ccc(NC(=O)CCN4CCCC4)cc3nc3cc(NC(=O)CCN4CCCC4)ccc23)cc1 ... 53.7

What measured viability, T/C goes with CCc1c2c(nc3ccc(O)cc13)-c1cc3c(c(=O)n1C2)COC(=O)[C@]3(O)CC + Cc1cnc(CNC(=O)c2c(=O)c3ccc(N4CCCN(C)CC4)nc3n3c2sc2ccccc23)cn1 ?
57.8

What measured viability, T/C goes with CCc1c2c(nc3ccc(O)cc13)-c1cc3c(c(=O)n1C2)COC(=O)[C@]3(O)CC + Cc1[nH]c2ccc(F)cc2c1-c1nc2c3cccnc3c3ncccc3c2[nH]1 ?
28.4
